Field: log10 of MBC. Provide a value for each of the molecules that follow.
Tested on: Bacillus subtilis 1904-E
Assay: Bacterial cell viability assay (Resazurin), MBC
Assay type: cell-based
Conditions: mode of at least three experiments, read-out: B. subtilis MBC
Values are log10 of MBC in µM.

Example entries and their recorded answers appear below.
# query: log10 of MBC of entry CCCCCCCCCCCCNC(=O)[C@H](C(C)C)n1ccnc1 1.68

Another molecule to look at: CCCCCCCCCCCCNC(=O)[C@@H](Cc1ccccc1)n1cc[n+](Cc2cccc(C[n+]3ccn([C@@H](Cc4ccccc4)C(=O)NCCCCCCCCCCCC)c3)c2)c1 1.79

Another molecule to look at: CCCCNC(=O)[C@H](C(C)C)n1cc[n+](Cc2ccccc2)c1 3.41

Another molecule to look at: CCCCCCCCCCCCNC(=O)[C@H](C(C)C)n1cc[n+](Cc2cccc(C[n+]3ccn([C@@H](C(=O)NCCCCCCCCCCCC)C(C)C)c3)c2)c1 1.53

For every record below, what is its log10 of MBC?
1. CCCCCCCCCCCCNC(=O)[C@H](Cc1ccccc1)n1ccnc1
2. CCCCNC(=O)[C@H](C(C)C)n1cc[n+](Cc2cccc(C[n+]3ccn([C@@H](C(=O)NCCCC)C(C)C)c3)c2)c1
3. CCCCCCCCCCCCNC(=O)[C@H](C(C)C)n1cc[n+](Cc2ccccc2)c1
4. CCCCCCCCCCCCNC(=O)[C@H](Cc1ccccc1)n1cc[n+](Cc2ccccc2)c1

1.62
2.56
1.26
0.85

###

Field: CAC Fluorescence, CCM:W, CAC1. Provide a value for each of the compounds that follow.
Assay: Critical aggregation concentration by pyrene fluorescence (I1/I3)
Format: physicochemical
Settings: 1/1 bacterial cell culture medium/water, 25 °C, first break point
Answers are plain numbers, in mM.

Example entries and their recorded answers appear below.
# query: CAC Fluorescence, CCM:W, CAC1 of entry CCCCCCCCCCCCNC(=O)[C@H](Cc1ccccc1)n1ccnc1 0.018

Another compound to look at: CCCCNC(=O)[C@H](C(C)C)n1cc[n+](Cc2cccc(C[n+]3ccn([C@@H](C(=O)NCCCC)C(C)C)c3)c2)c1 2.25

Another compound to look at: CCCCCCCCCCCCNC(=O)[C@H](C(C)C)n1ccnc1 0.004

Another compound to look at: CCCCNC(=O)[C@H](C(C)C)n1ccnc1 2.89

Another compound to look at: CCCCCCCCCCCCNC(=O)[C@H](C(C)C)n1cc[n+](Cc2cccc(C[n+]3ccn([C@@H](C(=O)NCCCCCCCCCCCC)C(C)C)c3)c2)c1 0.016

For every record below, what is its CAC Fluorescence, CCM:W, CAC1?
1. CCCCCCCCCCCCNC(=O)[C@H](Cc1ccccc1)n1cc[n+](Cc2ccccc2)c1
2. CCCCNC(=O)[C@H](C(C)C)n1cc[n+](Cc2ccccc2)c1
3. CCCCCCCCCCCCNC(=O)[C@H](C(C)C)n1cc[n+](Cc2ccccc2)c1

0.063
3.46
0.006

###

Field: CAC Fluorescence, W. Provide a value for each of the compounds that follow.
Assay: Critical aggregation concentration by pyrene fluorescence (I1/I3)
Format: physicochemical
Settings: in water, 25 °C, from the break point
Give bare numbers, in mM.

Example entries and their recorded answers appear below.
# query: CAC Fluorescence, W of entry CCCCCCCCCCCCNC(=O)[C@H](Cc1ccccc1)n1ccnc1 0.033

Another compound to look at: CCCCCCCCCCCCNC(=O)[C@H](C(C)C)n1ccnc1 0.085

Another compound to look at: CCCCNC(=O)[C@H](C(C)C)n1ccnc1 4.31

Another compound to look at: CCCCNC(=O)[C@H](C(C)C)n1cc[n+](Cc2ccccc2)c1 4.57

Another compound to look at: CCCCCCCCCCCCNC(=O)[C@H](Cc1ccccc1)n1cc[n+](Cc2ccccc2)c1 0.098

For every record below, what is its CAC Fluorescence, W?
1. CCCCCCCCCCCCNC(=O)[C@H](C(C)C)n1cc[n+](Cc2cccc(C[n+]3ccn([C@@H](C(=O)NCCCCCCCCCCCC)C(C)C)c3)c2)c1
2. CCCCCCCCCCCCNC(=O)[C@H](C(C)C)n1cc[n+](Cc2ccccc2)c1
3. CCCCNC(=O)[C@H](C(C)C)n1cc[n+](Cc2cccc(C[n+]3ccn([C@@H](C(=O)NCCCC)C(C)C)c3)c2)c1

[0.010, 0.084, 2.34]
